molecular target: Mitogen-activated protein kinase kinase kinase kinase 1 (Homo sapiens); assay: HPK1 Biochemical Enzyme Assay: HPK1 enzyme inhibition was measured using a microfluidic mobility shift assay (MSA). The reactions were conducted in 50 μL volumes in 96-well plates, and contained 0.5 nM human full-length recombinant HPK1, 3 μM phosphoacceptor peptide, 5FAM-[…]-COOH (CPC Scientific, Sunnyvale, Calif.), test compound (11-dose 3-fold serial dilutions, 2% DMSO final) or DMSO only, 0.002% Tween-20, 1 mM DTT and 2.5 mM MgCl2 in 50 mM MOPS (3-(N-morpholino)propanesulfonic acid), pH 7.8, buffer and were initiated by addition of 75 μM ATP, following a 20-min preincubation. The reactions were conducted for 60 min at 37° C., stopped by the addition of 50 μL of 0.015 M EDTA, pH 8, and the extent of reactions (˜15-20% conversion with no inhibitor) was determined after electrophoretic separation of the fluorescently labeled peptide substrate and phosphorylated product on an LabChip EZ Reader II (PerkinElmer, Inc., Waltham, Mass.).Inhibition of HPK1 was also measured using the fluorescence based chelation-enhanced fluorescence (CHEF) method (1), using a proprietary fluorescent peptide substrate, in which a cysteine residue is alkylated with a sulfonamido-oxine based derivative to afford an amino acid termed C-Sox (CSx). The assay was conducted similarly as described for the MSA method above, but using 3 μM Ac-[CSx][…]-amide peptide substrate (also known as AQT0178 when purchased from AssayQuant Technologies Inc., Hopkinton, Mass.) and 45 μM ATP. Initial reaction velocities were determined by following the peptide fluorescence (λex=360 nm, λem=500 nm) at 30° C. for 15 min in a Tecan M1000 plate reader (Tecan Group Ltd., Männedorf, Zürich, Switzerland). […] HPK1 protein was produced in-house and preactivated by autophosphorylation of enzyme with MgATP as described in the section “Production of recombinant autophosphorylated full-length HPK1”.
Sequence (Q92918 whole entry): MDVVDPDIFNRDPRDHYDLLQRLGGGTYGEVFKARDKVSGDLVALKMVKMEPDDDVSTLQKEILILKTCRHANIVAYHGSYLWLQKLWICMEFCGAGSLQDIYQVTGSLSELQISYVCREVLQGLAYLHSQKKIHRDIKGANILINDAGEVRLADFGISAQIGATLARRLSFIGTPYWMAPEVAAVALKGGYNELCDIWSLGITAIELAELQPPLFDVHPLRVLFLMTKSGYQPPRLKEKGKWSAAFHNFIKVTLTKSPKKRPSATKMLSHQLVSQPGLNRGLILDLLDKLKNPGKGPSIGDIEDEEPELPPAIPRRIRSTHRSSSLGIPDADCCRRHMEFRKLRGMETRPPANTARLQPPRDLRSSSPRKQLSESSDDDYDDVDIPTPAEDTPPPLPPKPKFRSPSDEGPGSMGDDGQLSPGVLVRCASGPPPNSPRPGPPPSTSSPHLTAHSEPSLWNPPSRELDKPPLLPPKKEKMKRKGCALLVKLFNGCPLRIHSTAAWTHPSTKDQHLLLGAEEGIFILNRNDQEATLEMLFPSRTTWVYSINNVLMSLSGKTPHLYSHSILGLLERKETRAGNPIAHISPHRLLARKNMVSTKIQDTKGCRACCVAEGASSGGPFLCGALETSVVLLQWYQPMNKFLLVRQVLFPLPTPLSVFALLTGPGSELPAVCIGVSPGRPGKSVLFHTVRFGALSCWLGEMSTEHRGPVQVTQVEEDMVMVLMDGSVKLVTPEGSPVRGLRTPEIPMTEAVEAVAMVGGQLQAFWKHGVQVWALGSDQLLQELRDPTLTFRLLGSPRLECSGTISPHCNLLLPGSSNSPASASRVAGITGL
Record form. Attribute: Ki. Fill in for each entry.
Numbers only, in nM.

Field: example entries. Status: answers known.
inputsmiles=Cc1nnc(-c2cccc(N3Cc4c(cc(N5CCCC5(C)C)nc4CN)C3=O)n2)n1C(C)C studytarget="Mitogen-activated protein kinase kinase kinase kinase 1 (Homo sapiens)" propertyname=Ki datavalue=0.1
inputsmiles=CNCc1nc(NC)cc2c1CN(c1cccc(-c3nncn3C(C)C)n1)C2=O studytarget="Mitogen-activated protein kinase kinase kinase kinase 1 (Homo sapiens)" propertyname=Ki datavalue=0.72

Query compound follows.
Query block: Can you share its Ki? I mean this compound: CCn1c(C)nnc1-c1cccc(N2Cc3c(cc(N4CCC[C@H]4C)nc3CNC)C2=O)n1
Result block: 0.09
